System: LXRb:RXRa (NR concentration 270 nM, RXRa partner concentration 90 nM)
Method summary: PBM binding z-score (relative to random genomic background probes); higher = stronger binding; sequences stand for … in GC…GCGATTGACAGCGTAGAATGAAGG
Class 1: PBM binding z-score at least 3. Class 0: PBM binding z-score below 3.

Worked set:
Seq text: ATATGTAGGGTACATCCGGGTCATTCAGGCTATG
Tested system: LXRb:RXRa (NR concentration 270 nM, RXRa partner concentration 90 nM)
Label value: 0
//
Seq text: ACAGACAGGTGAGTGAAGGTAACACAGCTGGACG
Tested system: LXRb:RXRa (NR concentration 270 nM, RXRa partner concentration 90 nM)
Label value: 0
//
Seq text: ACTATTAGTTGACTTAGGGCAGCCGATACGACGC
Tested system: LXRb:RXRa (NR concentration 270 nM, RXRa partner concentration 90 nM)
Label value: 0
//
Seq text: GCGACTGCGGCATCAGCAGGTTACCATAACTTAA
Tested system: LXRb:RXRa (NR concentration 270 nM, RXRa partner concentration 90 nM)
Label value: 0
//
Seq text: CGAACTAGGTCAAGGACAGAGAATCTCCGCACGC
Tested system: LXRb:RXRa (NR concentration 270 nM, RXRa partner concentration 90 nM)
Label value: 0
//
Seq text: TAGCCTAGGTCATTGGGCCCGTATAGTACGCATC
Tested system: LXRb:RXRa (NR concentration 270 nM, RXRa partner concentration 90 nM)
Label value: 0
//
Seq text: ATCTCTAGGTTACAAGTTCAGTGAAAGAGAGGAC
Tested system: LXRb:RXRa (NR concentration 270 nM, RXRa partner concentration 90 nM)
Label value: 0
//
Seq text: TGAATGAGATTAAAGATCAGGGAACGTGGCGTCG
Tested system: LXRb:RXRa (NR concentration 270 nM, RXRa partner concentration 90 nM)
Label value: 0

Q. API: above_or_equal(metric=PBM binding z-score, cutoff=3) for item TCTGGTTGGTCAAAGGTCACACACTCGAAATGCG
A. 1

Q. Next sequence: GCTGCTAGGTCAGGTAGGTCAGCTAACGGGTACG
A. 0

Q. Can you handle CAAACTAGGCCACAGAGGTCAAAGTCCGTGCGTA next?
A. 1

Q. Next up: TTACCAAGGTGAAAGTCGTTGATCCCTCTGTAGA
A. 0

Q. // next record TAGTCTAGGTCAGATCGGGCCAGTATACGCTATA
A. 0

Q. Subsequent entry: CGTAGCAGGCCAATCTGGGTCACTCAAGGCTTGA
A. 0

Q. Could you do the same for ATATGTGGGTTAAGGGTCATTCAGGTTGGTTCGC , please?
A. 1

====

Entries and their measured PBM binding z-score follow.
Test system: PPARg homodimer (NR concentration 180 nM)
Method summary: PBM binding z-score (relative to random genomic background probes); higher = stronger binding; sequences stand for … in GC…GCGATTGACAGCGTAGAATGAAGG
// return a plain number; no unit text

Example entries and their recorded answers appear below.
Seq text: GCTCGGAGCACAAGGTCAGAGCTTTGTCCGTAGA
Measurement name: PBM binding z-score
Result value: 0.0109

Seq text: CAAACTAGGACACGAAAGGTCAAAGTCGAATGAC
Measurement name: PBM binding z-score
Result value: 4.51

Seq text: AGAATGAGGTTAAGATCAGGGTAACAGAATACAT
Measurement name: PBM binding z-score
Result value: 1.13

Q. # query: PBM binding z-score of entry TCTAGCAGTCCAGAGGGTCACTCAAGAGGTACGG
A. 0.412

Q. Proceed to TTACCAAGGTGAAAGGTCGTTGATGCACGCCTTG
A. 1.41

Q. Record: CCTTCTGGGCCATCAGGTCATTGATATCAACGTT
A. 1.37

Q. Further, for AATACAGGGTCACTAGGCCTGAGTAGGTACGAAT ?
A. 2.04

Q. Now consider CAGCCTAGGTCAAGGCCAGTATAGGAGGAACGTT .
A. 0.784

Q. Can you handle GGAACGAGGGCATTCGAGTTAATAGCATGGCGAT next?
A. 0.00587

Q. And GCGACTGGGGCATCAGCAGGTGACCATAACTTAA ?
A. 0.0227

Q. Please answer likewise for CCTAGCAGGCCCATCTGGGTCACTCAAGGCTTGA
A. 0.0647

====

Tested on: PXR homodimer (NR concentration 270 nM)
Method summary: PBM binding z-score (relative to random genomic background probes); higher = stronger binding; sequences stand for … in GC…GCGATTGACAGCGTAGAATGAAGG
Measurement name: PBM binding z-score
The answer should be written as a number, with no unit following it.

Seq text: CGATCTAGGTCAAGGACAGTGAATCTCCGCACGC
Measurement name: PBM binding z-score
Result value: 0.057
//
Seq text: TCTGGTAGATCAGCAGGTTAAGAAAGCTGGCCAA
Measurement name: PBM binding z-score
Result value: -0.669
//
Seq text: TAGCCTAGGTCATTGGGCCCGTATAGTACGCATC
Measurement name: PBM binding z-score
Result value: 0.165
//
Seq text: GCTATTAGTTGAAAGGGAAACCGAATGATTCTCG
Measurement name: PBM binding z-score
Result value: 0.0349

Q. May I ask what PBM binding z-score has been recorded for TCTTGTAGATCAATAGAGGTTAACAAAGTGCGCT ?
A. 0.45

====

Tested on: LXRa:RXRa (NR concentration 270 nM, RXRa partner concentration 90 nM)
Method summary: PBM binding z-score (relative to random genomic background probes); higher = stronger binding; sequences stand for … in GC…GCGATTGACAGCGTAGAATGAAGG
Measurement name: PBM binding z-score

Example sequences with recorded PBM binding z-score:
Seq text: CCGACTGGGGCATAGGTTACCATACTCAGTACGA
PBM binding z-score: -0.0807
//
Seq text: TGAATGAGCTTATAAGATCAGGGAACGTTGCAAA
PBM binding z-score: -0.891
//
Seq text: CCTGCTAGGCCAATGGTCAGCTAAAGCAGCTCGC
PBM binding z-score: -0.503
//
Seq text: GGAACGAGTGCATTCGAGTTGATAGCATGGCGAT
PBM binding z-score: 0.374
//
Seq text: TCTAGTTGGTCACGGAGGTCGCACACGACGGGTA
PBM binding z-score: 1.09

Q. // lookup PBM binding z-score for CGTCCAAGTTCATAGGAGGTCAGTGAAGACAGAT
A. 6.43

Q. Repeat with GCTTTTAGTTGAAAGGGCAACCGAATGATTCTCG
A. 0.561

Q. Subsequent entry: TCTTGTAGATCAACAGGAGGTTGAGAAAGATCGA
A. -0.201

====

System: PPARa:RXRa (NR concentration 270 nM, RXRa partner concentration 90 nM)
Method summary: PBM binding z-score (relative to random genomic background probes); higher = stronger binding; sequences stand for … in GC…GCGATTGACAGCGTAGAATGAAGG
// reported PBM binding z-score per item

Some sequences with known PBM binding z-score results, for comparison:
Seq text: AGAATGAGGTTACCAAAGATCAGGGATACGCTTG
Tested system: PPARa:RXRa (NR concentration 270 nM, RXRa partner concentration 90 nM)
PBM binding z-score: 3.28

Seq text: CCTAGTTGCTCAAGGTCACACACGCTATAGGTAC
Tested system: PPARa:RXRa (NR concentration 270 nM, RXRa partner concentration 90 nM)
PBM binding z-score: 3.98

Seq text: ACAGACAGGGGATGAAGGTAACTCAGGCTATCAT
Tested system: PPARa:RXRa (NR concentration 270 nM, RXRa partner concentration 90 nM)
PBM binding z-score: 0.414

Seq text: CCTTACGGGTCACTCCAGGTTATAGGATCGGAGT
Tested system: PPARa:RXRa (NR concentration 270 nM, RXRa partner concentration 90 nM)
PBM binding z-score: 4.39

Seq text: ATACTAAGGTGATCGTGAGGTCGTTGATACTAAC
Tested system: PPARa:RXRa (NR concentration 270 nM, RXRa partner concentration 90 nM)
PBM binding z-score: 2.07

Okay, next one:
Q. Item CCTACTGGGCCATTCAGTGGTCATTGATCATATG has what recorded PBM binding z-score?
A. 0.355

====

System: RARg homodimer (NR concentration 270 nM)
Method summary: PBM binding z-score (relative to random genomic background probes); higher = stronger binding; sequences stand for … in GC…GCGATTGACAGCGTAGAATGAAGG
Measurement name: PBM binding z-score
Field format: numeric only.

Q. What does the data say about its PBM binding z-score? Entry: TTACCAAGGTGATCTGAGGTCGTTGATCCAACTC
A. 0.757

Q. And what about the sequence CCAGACACGTGAGAAGGTAACTCAGCCTCGATTA ?
A. 0.206

Q. What would you report for CCTACTGGCCCACGAAAGGTCATTGATTCAGTGA ?
A. 3.95

Q. Same thing, different sequence: TCGAGTAGGTTAGTCGGCGCATTCAGCCAACATA
A. -0.662

Q. Field entry: CCTTACGGGTCAAGGTTATAGTACGGGTGGTACG
A. 4.42
